targetEntity: Cad1 (UniProt P24813)
Sequence: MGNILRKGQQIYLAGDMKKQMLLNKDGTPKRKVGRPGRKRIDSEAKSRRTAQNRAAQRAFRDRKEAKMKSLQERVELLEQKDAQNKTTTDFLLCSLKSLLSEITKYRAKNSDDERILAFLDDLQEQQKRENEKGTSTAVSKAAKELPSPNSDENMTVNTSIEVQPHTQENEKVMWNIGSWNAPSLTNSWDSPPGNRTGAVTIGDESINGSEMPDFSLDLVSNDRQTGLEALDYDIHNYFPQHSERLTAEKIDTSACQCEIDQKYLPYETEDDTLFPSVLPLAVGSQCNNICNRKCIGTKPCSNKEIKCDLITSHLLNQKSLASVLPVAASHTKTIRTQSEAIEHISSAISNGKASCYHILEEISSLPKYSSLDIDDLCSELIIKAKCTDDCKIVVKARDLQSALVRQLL
assayNotes: PBM E-score (8-mer binding enrichment) (E-score (-0.5 to 0.5)); higher = stronger / more preferred TF binding
experimentalParameters: protein concentration: 100 nM; construct: GST-full length
The full ranking holds about 33,000 sequences; the median of “E-score (-0.5 to 0.5)” is about -0.0014, and the highest 2% start at about 0.25. Only a selection was taken, and the highest values are over-represented in it overall.
propertyLabel: PBM E-score

sequenceRecord: GCAGTTAC
propertyLabel: PBM E-score
obsValue: 0.128

sequenceRecord: ACAGAACC
propertyLabel: PBM E-score
obsValue: 0.0474

sequenceRecord: GCAGCGGA
propertyLabel: PBM E-score
obsValue: -0.0753

sequenceRecord: CGAGTGTA
propertyLabel: PBM E-score
obsValue: -0.0885

sequenceRecord: CGTCGCGA
propertyLabel: PBM E-score
obsValue: 0.111

sequenceRecord: AGAGTATC
propertyLabel: PBM E-score
obsValue: -0.0123

sequenceRecord: ATGGTCCC
propertyLabel: PBM E-score
obsValue: -0.189

sequenceRecord: AGGAGACT
propertyLabel: PBM E-score
obsValue: -0.286

sequenceRecord: GCGGGCCC
propertyLabel: PBM E-score
obsValue: -0.157

sequenceRecord: CTTTCATC
propertyLabel: PBM E-score
obsValue: 0.0102

sequenceRecord: GAGTGGGC
propertyLabel: PBM E-score
obsValue: -0.294

----------
targetEntity: Cad1 (UniProt P24813)
Sequence: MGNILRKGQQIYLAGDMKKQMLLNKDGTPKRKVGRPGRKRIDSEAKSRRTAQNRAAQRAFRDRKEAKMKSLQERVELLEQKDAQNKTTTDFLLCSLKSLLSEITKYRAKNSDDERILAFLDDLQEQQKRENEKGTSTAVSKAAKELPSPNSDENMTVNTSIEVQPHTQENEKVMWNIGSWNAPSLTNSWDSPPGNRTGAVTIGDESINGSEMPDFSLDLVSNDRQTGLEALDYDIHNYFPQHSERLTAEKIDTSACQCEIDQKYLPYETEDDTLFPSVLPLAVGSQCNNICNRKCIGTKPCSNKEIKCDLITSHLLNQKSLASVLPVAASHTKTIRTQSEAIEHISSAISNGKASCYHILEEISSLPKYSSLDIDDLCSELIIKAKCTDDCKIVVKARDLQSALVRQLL
assayNotes: PBM E-score (8-mer binding enrichment) (E-score (-0.5 to 0.5)); higher = stronger / more preferred TF binding
experimentalParameters: protein concentration: 100 nM; construct: GST-full length
The full ranking holds about 33,000 sequences; the median of “E-score (-0.5 to 0.5)” is about -0.0014, and the highest 2% start at about 0.25. What follows is part of a selection rich in the highest values, with near analogues and random picks from the rest.
Recorded PBM E-score determines the label; the label ranges are interval 1: < 0.09; interval 2: ≥ 0.09 and < 0.2; interval 3: ≥ 0.2

sequenceRecord: AATATTCG
className: interval 3
--
sequenceRecord: CAATTATG
className: interval 2
--
sequenceRecord: ATAACGGA
className: interval 2
--
sequenceRecord: ATATTATA
className: interval 2
--
sequenceRecord: GGCGTTAC
className: interval 1
--
sequenceRecord: AATATTCA
className: interval 2
--
sequenceRecord: AATATCCA
className: interval 1
--
sequenceRecord: CTTATTAA
className: interval 3

----------
sequences and their reported PBM E-score
targetEntity: Cad1 (UniProt P24813)
Sequence: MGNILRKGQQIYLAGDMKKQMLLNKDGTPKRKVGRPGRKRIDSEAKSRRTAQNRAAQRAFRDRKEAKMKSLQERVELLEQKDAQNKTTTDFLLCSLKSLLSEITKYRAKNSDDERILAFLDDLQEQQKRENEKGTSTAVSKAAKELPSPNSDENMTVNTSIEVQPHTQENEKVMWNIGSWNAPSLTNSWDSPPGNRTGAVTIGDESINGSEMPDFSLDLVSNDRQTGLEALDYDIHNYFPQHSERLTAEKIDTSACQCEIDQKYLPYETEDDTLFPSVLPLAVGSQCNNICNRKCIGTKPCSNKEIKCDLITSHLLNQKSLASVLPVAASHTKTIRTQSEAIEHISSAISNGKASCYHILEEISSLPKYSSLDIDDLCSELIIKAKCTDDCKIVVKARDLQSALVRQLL
assayNotes: PBM E-score (8-mer binding enrichment) (E-score (-0.5 to 0.5)); higher = stronger / more preferred TF binding
experimentalParameters: protein concentration: 100 nM; construct: GST-full length
Whole data set: some 33,000 sequences, median “E-score (-0.5 to 0.5)” near -0.0014, cut for the highest 2% near 0.25. The list comes from a sample in which the highest values are over-represented; it also holds close analogues and randomly drawn sequences.
propertyLabel: PBM E-score

sequenceRecord: ATTAGCAG
obsValue: 0.0216
//
sequenceRecord: ACCAGAGG
obsValue: -0.164
//
sequenceRecord: GTTAGCAA
obsValue: 0.0595
//
sequenceRecord: GTAAGCAA
obsValue: 0.345
//
sequenceRecord: ACCTAATA
obsValue: 0.137
//
sequenceRecord: TAATAACA
obsValue: 0.15
//
sequenceRecord: AGGTCCCG
obsValue: -0.0309
//
sequenceRecord: ATGATGCA
obsValue: 0.222
//
sequenceRecord: ATGTGACA
obsValue: 0.281
//
sequenceRecord: GAATAACA
obsValue: 0.252

----------
Examples of sequences with documented PBM E-score follow.
targetEntity: Cad1 (UniProt P24813)
Sequence: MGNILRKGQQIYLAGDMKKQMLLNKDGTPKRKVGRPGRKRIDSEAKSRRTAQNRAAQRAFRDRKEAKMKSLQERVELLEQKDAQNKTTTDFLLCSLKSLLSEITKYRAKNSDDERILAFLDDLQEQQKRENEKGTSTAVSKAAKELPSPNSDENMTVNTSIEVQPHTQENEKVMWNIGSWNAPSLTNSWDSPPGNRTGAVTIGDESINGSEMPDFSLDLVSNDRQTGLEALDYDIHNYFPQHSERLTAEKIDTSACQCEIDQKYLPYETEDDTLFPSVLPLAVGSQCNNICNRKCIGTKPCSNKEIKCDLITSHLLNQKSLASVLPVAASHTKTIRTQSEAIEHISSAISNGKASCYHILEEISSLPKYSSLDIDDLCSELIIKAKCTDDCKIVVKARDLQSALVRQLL
assayNotes: PBM E-score (8-mer binding enrichment) (E-score (-0.5 to 0.5)); higher = stronger / more preferred TF binding
experimentalParameters: protein concentration: 100 nM; construct: GST-full length
Over roughly 33,000 sequences, “E-score (-0.5 to 0.5)” has its median near -0.0014; the highest 2% begin near 0.25. Many of the other results were omitted from the sample, so the highest values are more common in it than they were.

sequenceRecord: ACCAAGGC
PBM E-score: -0.0921
--
sequenceRecord: ATAATCCC
PBM E-score: -0.033
--
sequenceRecord: ACGGCGCG
PBM E-score: 0.322
--
sequenceRecord: ACTTAGTA
PBM E-score: 0.213
--
sequenceRecord: AAAAGTAA
PBM E-score: 0.265
--
sequenceRecord: AATTAGAC
PBM E-score: 0.0936
--
sequenceRecord: CTCGATTA
PBM E-score: 0.276
--
sequenceRecord: CAAGCGCA
PBM E-score: 0.262
--
sequenceRecord: CACGATTA
PBM E-score: 0.162
--
sequenceRecord: AAAGCGCA
PBM E-score: -0.0636

----------
Listed here are sequences together with their documented PBM E-score.
targetEntity: Cad1 (UniProt P24813)
Sequence: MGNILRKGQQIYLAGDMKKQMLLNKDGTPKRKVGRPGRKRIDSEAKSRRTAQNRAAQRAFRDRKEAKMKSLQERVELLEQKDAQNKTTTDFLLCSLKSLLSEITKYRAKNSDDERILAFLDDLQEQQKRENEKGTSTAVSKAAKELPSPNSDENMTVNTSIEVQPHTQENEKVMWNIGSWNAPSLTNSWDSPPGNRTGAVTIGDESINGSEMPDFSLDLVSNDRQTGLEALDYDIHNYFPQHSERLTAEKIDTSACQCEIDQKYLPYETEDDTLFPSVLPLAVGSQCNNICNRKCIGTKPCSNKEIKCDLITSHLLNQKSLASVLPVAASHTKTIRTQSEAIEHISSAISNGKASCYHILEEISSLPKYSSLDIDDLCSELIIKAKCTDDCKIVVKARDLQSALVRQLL
assayNotes: PBM E-score (8-mer binding enrichment) (E-score (-0.5 to 0.5)); higher = stronger / more preferred TF binding
experimentalParameters: protein concentration: 100 nM; construct: GST-full length
In all, about 33,000 sequences were measured (“E-score (-0.5 to 0.5)”: median about -0.0014, highest 2% from about 0.25 on). This excerpt belongs to a sample that is enriched for the highest values.

sequenceRecord: ACCAATAC
targetEntity: Cad1 (UniProt P24813)
PBM E-score: -0.106
//
sequenceRecord: TATGTGGA
targetEntity: Cad1 (UniProt P24813)
PBM E-score: 0.146
//
sequenceRecord: CACGTTTC
targetEntity: Cad1 (UniProt P24813)
PBM E-score: -0.176
//
sequenceRecord: ACATGGCC
targetEntity: Cad1 (UniProt P24813)
PBM E-score: 0.141
//
sequenceRecord: TCTAATCA
targetEntity: Cad1 (UniProt P24813)
PBM E-score: 0.181
//
sequenceRecord: CTCTGGGA
targetEntity: Cad1 (UniProt P24813)
PBM E-score: -0.252
//
sequenceRecord: ACAGACCC
targetEntity: Cad1 (UniProt P24813)
PBM E-score: -0.211
//
sequenceRecord: CTGAAGAA
targetEntity: Cad1 (UniProt P24813)
PBM E-score: -0.18
//
sequenceRecord: ACCAATAT
targetEntity: Cad1 (UniProt P24813)
PBM E-score: 0.306
//
sequenceRecord: ACTAATCA
targetEntity: Cad1 (UniProt P24813)
PBM E-score: 0.344
//
sequenceRecord: CCGCTGTC
targetEntity: Cad1 (UniProt P24813)
PBM E-score: 0.00182
//
sequenceRecord: ACTCGCAT
targetEntity: Cad1 (UniProt P24813)
PBM E-score: 0.101
//
sequenceRecord: TAAGAACA
targetEntity: Cad1 (UniProt P24813)
PBM E-score: 0.275
//
sequenceRecord: CCCGGAAA
targetEntity: Cad1 (UniProt P24813)
PBM E-score: 0.134
//
sequenceRecord: AACAATAC
targetEntity: Cad1 (UniProt P24813)
PBM E-score: 0.135
//
sequenceRecord: CAAGGGAC
targetEntity: Cad1 (UniProt P24813)
PBM E-score: -0.0828
//
sequenceRecord: CGGCTGTA
targetEntity: Cad1 (UniProt P24813)
PBM E-score: -0.112
//
sequenceRecord: CCAGATGA
targetEntity: Cad1 (UniProt P24813)
PBM E-score: -0.131
//
sequenceRecord: AGATACAG
targetEntity: Cad1 (UniProt P24813)
PBM E-score: 0.0445
//
sequenceRecord: GCGGGTCC
targetEntity: Cad1 (UniProt P24813)
PBM E-score: -0.207
//
sequenceRecord: ATCCGGAC
targetEntity: Cad1 (UniProt P24813)
PBM E-score: 0.131
//
sequenceRecord: CTTCCGTC
targetEntity: Cad1 (UniProt P24813)
PBM E-score: -0.133
